target: IDO1 (Homo sapiens); assay: IDO1 Cellular Assay in HeLa Cells Stimulated with IFNγ; type: cell-based; settings: IFNγ 100 ng/mL, 300 uM L-tryptophan, about 48 hours, fluorescence readout, read-out: IDO1 HELA Cell Assay, IC50
property: IC50 (nM)

Use the examples below as a reference point.
smiles-string: COc1c(F)cc(C2CCN(C(=O)Cn3nc(C(=O)N4C[C@@H](C)O[C@@H](C)C4)c4c3CCC4)CC2)cc1Cl
output-unit: nM
IC50: 19.3

smiles-string: COc1ccc(F)c(C2CCN(C(=O)Cn3nc(C(=O)N4C[C@@H](C)O[C@@H](C)C4)c4c3CCC4)CC2)c1
output-unit: nM
IC50: 149

smiles-string: Cc1cc(F)ccc1C1CCN(C(=O)Cn2nc(C(=O)N3CC[C@@H](O)[C@H](F)C3)c3c2CCC3)CC1
output-unit: nM
IC50: 162

smiles-string: Cc1cccc(C2CCN(C(=O)Cn3nc(C(=O)N4CCN(C(=O)CO)CC4)c4c3CCC4)CC2)c1C
output-unit: nM
IC50: 17.6

smiles-string: Cc1cccc(C2CCN(C(=O)Cn3nc(C(=O)N4CC[C@@H](O)[C@H](C)C4)c4c3CCC4)CC2)c1C
output-unit: nM
IC50: 1.9

1 = C[C@@H]1CN(C(=O)c2nn(CC(=O)N3CCC(c4cc(F)cc(F)c4F)CC3)c3c2CCC3)C[C@H](C)O1
2 = Cc1cccc(C2CCN(C(=O)Cn3nc(C(=O)N4CC[C@@H](O)[C@H](F)C4)c4c3C[C@H]3C[C@@H]43)CC2)c1C
# returns the entry with the larger IC50; inputs 1 and 2 Your answer should be the label attached to the chosen record. 1
(1: 48.9 nM, 2: 1.2 nM)

* * *

target: IDO1 (Homo sapiens, UniProt P14902); test: IDO1 Cellular Assay in HeLa Cells Stimulated with IFNγ; type: cell-based; conditions: IFNγ 100 ng/mL, 300 uM L-tryptophan, about 48 hours, fluorescence readout, read-out: IDO1 HELA Cell Assay, IC50
Sequence (P14902 whole entry): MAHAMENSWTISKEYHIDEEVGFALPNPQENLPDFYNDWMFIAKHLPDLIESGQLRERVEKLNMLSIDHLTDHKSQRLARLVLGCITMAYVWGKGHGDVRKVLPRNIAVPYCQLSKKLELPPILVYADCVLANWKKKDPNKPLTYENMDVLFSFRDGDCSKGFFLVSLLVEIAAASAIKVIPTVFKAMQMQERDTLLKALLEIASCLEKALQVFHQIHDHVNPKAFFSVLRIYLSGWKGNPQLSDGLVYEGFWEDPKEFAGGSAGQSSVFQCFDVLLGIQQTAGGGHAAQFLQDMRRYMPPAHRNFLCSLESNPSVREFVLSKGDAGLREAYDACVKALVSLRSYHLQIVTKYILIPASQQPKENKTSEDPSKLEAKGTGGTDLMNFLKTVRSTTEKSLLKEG
property: IC50 (nM)

molecule: C[C@@H]1CN(C(=O)c2nn(CC(=O)N3CCC(c4ccc(C(F)(F)F)c(F)c4)CC3)c3c2CCC3)C[C@H](C)O1
IC50 (nM): 165

I = C[C@@H]1CN(C(=O)c2nn(CC(=O)N3CCCC(c4ccccc4)CC3)c3c2CCC3)C[C@H](C)O1 (some centres unmarked)
II = Cc1c(C2CCN(C(=O)Cn3nc(C(=O)N4CCN(C(=O)CO)CC4)c4c3C[C@H]3C[C@@H]43)CC2)cccc1C(F)(F)F
III = Cc1cc(F)ccc1C1CCN(C(=O)Cn2nc(C(=O)N3C[C@@H](C)O[C@@H](C)C3)c3c2CCC3)CC1
IV = CC(=O)NC1CCN(C(=O)c2nn(CC(=O)N3CCC(F)(c4cccc(C)c4C)CC3)c3c2[C@@H]2C[C@@H]2C3)CC1
V = C[C@@H]1CN(C(=O)c2nn(CC(=O)N3CCC(c4cc(F)c(F)c(F)c4)CC3)c3c2CCC3)C[C@H](C)O1
Order the records by IC50, with each subsequent value no larger than the one before. Your answer should be the labels, listed in the requested order. I, V, III, IV, II
(I: 170 nM, V: 59 nM, III: 14.4 nM, IV: 2.1 nM, II: 1.3 nM)

* * *

target: IDO1 (Homo sapiens, UniProt P14902); assay: IDO1 Cellular Assay in HeLa Cells Stimulated with IFNγ; assay type: cell-based; details: IFNγ 100 ng/mL, 300 uM L-tryptophan, about 48 hours, fluorescence readout, read-out: IDO1 HELA Cell Assay, IC50
property: IC50 (nM)

Use the examples below as a reference point.
molecule: Cc1c(C2CCN(C(=O)Cn3nc(C(=O)N4CCO[C@H](CO)C4)c4c3C[C@H]3C[C@@H]43)CC2)cccc1C(F)(F)F
system: IDO1 (Homo sapiens, UniProt P14902)
output-unit: nM
IC50: 3

molecule: CCc1ccc(C2CCN(C(=O)Cn3nc(C(=O)N4C[C@@H](C)O[C@@H](C)C4)c4c3CCC4)CC2)cc1
system: IDO1 (Homo sapiens, UniProt P14902)
output-unit: nM
IC50: 107

molecule: Cc1cccc(C2(F)CCN(C(=O)Cn3nc(C(=O)N4C[C@@H](C)O[C@@H](C)C4)c4c3CCC4)CC2)c1C
system: IDO1 (Homo sapiens, UniProt P14902)
output-unit: nM
IC50: 3.2

molecule: C[C@@H]1CN(C(=O)c2nn(CC(=O)N3CCC(c4ccccc4C(F)(F)F)C3)c3c2CCC3)C[C@H](C)O1 (some centres unmarked)
system: IDO1 (Homo sapiens, UniProt P14902)
output-unit: nM
IC50: 152

a = C[C@@H]1CN(C(=O)c2nn(CC(=O)N3CCC(c4cccc5c4OC(F)(F)O5)CC3)c3c2CCC3)C[C@H](C)O1
b = COc1ccc(C2CCN(C(=O)Cn3nc(C(=O)N4C[C@@H](C)O[C@@H](C)C4)c4c3CCC4)CC2)c(C)c1C
c = Cc1cccc(C2CCN(C(=O)Cn3nc(C(=O)N4CCO[C@H](CO)C4)c4c3CCC4)CC2)c1C
d = Cc1cc(F)ccc1C1CCN(C(=O)Cn2nc(C(=O)N3CCO[C@H](CO)C3)c3c2CCC3)CC1
Provide the items ranked by increasing IC50. Your answer should be the labels, listed in the requested order. c, b, a, d

* * *

target: IDO1 (Homo sapiens, UniProt P14902); test: IDO1 Human Whole Blood Assay; format: cell-based; design: Human whole blood was drawn in sodium heparin coated tubes from healthy internal donors; from tissue; host or cells: human whole blood from healthy donors, stimulated with LPS and IFNγ; settings: LPS and IFNγ 100 ng/mL, overnight (18 h), kynurenine by LC/MS/MS
property: IC50 (nM)

Use the examples below as a reference point.
compound: Cc1cc(C2CCN(C(=O)Cn3nc(C(=O)N4C[C@@H](C)O[C@@H](C)C4)c4c3CCC4)CC2)ccc1Cl [Example 81]
property: IC50
assay-result: 1320

compound: Cc1cccc(C2CCN(C(=O)Cn3nc(C(=O)N4CC[C@@H](O)[C@H](C)C4)c4c3C[C@H]3C[C@@H]43)CC2)c1C [Example 19]
property: IC50
assay-result: 219

1 = Cc1cccc(C2CCN(C(=O)Cn3nc(C(=O)N4CCO[C@H](CO)C4)c4c3CCC4)CC2)c1C [Example 43]
2 = Cc1c(C2CCN(C(=O)Cn3nc(C(=O)N4C[C@@H](C)O[C@@H](C)C4)c4c3CCC4)CC2)cccc1C(F)(F)F [Example 83]
# returns the entry with the larger IC50; inputs 1 and 2 Your answer should be the label attached to the chosen record. 2
(2: 1850 nM, 1: 192 nM)

* * *

molecular target: IDO1 (Homo sapiens, UniProt P14902); assay: IDO1 Human Whole Blood Assay; format: cell-based; design: Human whole blood was drawn in sodium heparin coated tubes from healthy internal donors; from tissue; host or cells: human whole blood from healthy donors, stimulated with LPS and IFNγ; settings: LPS and IFNγ 100 ng/mL, overnight (18 h), kynurenine by LC/MS/MS
property: IC50 (µM)

compound: Cc1c(Cl)cccc1C1CCN(C(=O)Cn2nc(C(=O)N3CCN(C(=O)CO)CC3)c3c2C[C@H]2C[C@@H]32)CC1 [Example 17]
IC50, µM: 0.0596
--
compound: Cc1cccc(C2CCN(C(=O)Cn3nc(C(=O)N4CC[C@@H](O)[C@@H](C)C4)c4c3C[C@H]3C[C@@H]43)CC2)c1C [Example 22]
IC50, µM: 0.0691

1 = Cc1c(Cl)cccc1C1CCN(C(=O)Cn2nc(C(=O)N3C[C@@H](C)O[C@@H](C)C3)c3c2CCC3)CC1 [Example 82]
2 = Cc1cccc(C2CCN(C(=O)Cn3nc(C(=O)N4C[C@@H](C)O[C@@H](C)C4)c4c3CCC4)CC2)c1C [Example 64]
3 = Cc1cccc(C2CCN(C(=O)Cn3nc(C(=O)N4CC[C@H](O)[C@@H](F)C4)c4c3CCC4)CC2)c1C [Example 37]
4 = Cc1cccc(C2CCN(C(=O)Cn3nc(C(=O)N4C[C@@H](C)O[C@@H](C)C4)c4c3CCC4)CC2)c1 [Example 65]
Order the records by IC50, with each subsequent value no larger than the one before. Your answer should be the labels, listed in the requested order. 4, 1, 2, 3

* * *

molecular target: IDO1 (Homo sapiens, UniProt P14902); test: IDO1 Cellular Assay in HeLa Cells Stimulated with IFNγ; type: cell-based; conditions: IFNγ 100 ng/mL, 300 uM L-tryptophan, about 48 hours, fluorescence readout, read-out: IDO1 HELA Cell Assay, IC50
property: IC50 (nM)

compound: C[C@@H]1CN(C(=O)c2nn(CC(=O)N3CCC(c4ccc5c(c4)CCO5)CC3)c3c2CCC3)C[C@H](C)O1 [Example 93]
output-unit: nM
IC50: 17.8
//
compound: C[C@@H]1CN(C(=O)c2nn(CC(=O)N3CCC(c4cc(F)c(Cl)c(F)c4)CC3)c3c2CCC3)C[C@H](C)O1 [Example 101]
output-unit: nM
IC50: 27.9
//
compound: Cc1c(Cl)cccc1C1CCN(C(=O)Cn2nc(C(=O)N3C[C@@H](C)O[C@@H](C)C3)c3c2CCC3)CC1 [Example 82]
output-unit: nM
IC50: 3.5

I = COc1c(F)cc(C2CCN(C(=O)Cn3nc(C(=O)N4C[C@@H](C)O[C@@H](C)C4)c4c3CCC4)CC2)cc1F [Example 134]
II = Cc1cccc(C2CCN(C(=O)Cn3nc(C(=O)N4CCN(C(=O)CO)CC4)c4c3C[C@@H]3C[C@H]43)CC2)c1C [Example 28]
III = C[C@@H]1CN(C(=O)c2nn(CC(=O)N3CCC(c4ccccc4Cl)CC3)c3c2CCC3)C[C@H](C)O1 [Example 157]
Provide the items ranked by increasing IC50. Your answer should be the labels, listed in the requested order. II, I, III
(II: 41.2 nM, I: 82.1 nM, III: 150 nM)

A = C[C@@H]1CN(C(=O)c2nn(CC(=O)N3CCC(c4ccc(F)c(C(F)(F)F)c4)CC3)c3c2CCC3)C[C@H](C)O1 [Example 151]
B = C[C@@H]1CN(C(=O)c2nn(CC(=O)N3CCC(c4ccc(C(F)(F)F)c(Cl)c4)CC3)c3c2CCC3)C[C@H](C)O1 [Example 169]
C = C[C@@H]1CN(C(=O)c2nn(CC(=O)N3CCC(c4ccc(Cl)c(F)c4)CC3)c3c2CCC3)C[C@H](C)O1 [Example 112]
Provide the items ranked by increasing IC50. Your answer should be the labels, listed in the requested order. C, A, B
(C: 40.6 nM, A: 126 nM, B: 329 nM)
